Molecular target: Chitooligosaccharidolytic beta-N-acetylglucosaminidase (Ostrinia furnacalis) (UniProt Q06GJ0)
Sequence (whole entry): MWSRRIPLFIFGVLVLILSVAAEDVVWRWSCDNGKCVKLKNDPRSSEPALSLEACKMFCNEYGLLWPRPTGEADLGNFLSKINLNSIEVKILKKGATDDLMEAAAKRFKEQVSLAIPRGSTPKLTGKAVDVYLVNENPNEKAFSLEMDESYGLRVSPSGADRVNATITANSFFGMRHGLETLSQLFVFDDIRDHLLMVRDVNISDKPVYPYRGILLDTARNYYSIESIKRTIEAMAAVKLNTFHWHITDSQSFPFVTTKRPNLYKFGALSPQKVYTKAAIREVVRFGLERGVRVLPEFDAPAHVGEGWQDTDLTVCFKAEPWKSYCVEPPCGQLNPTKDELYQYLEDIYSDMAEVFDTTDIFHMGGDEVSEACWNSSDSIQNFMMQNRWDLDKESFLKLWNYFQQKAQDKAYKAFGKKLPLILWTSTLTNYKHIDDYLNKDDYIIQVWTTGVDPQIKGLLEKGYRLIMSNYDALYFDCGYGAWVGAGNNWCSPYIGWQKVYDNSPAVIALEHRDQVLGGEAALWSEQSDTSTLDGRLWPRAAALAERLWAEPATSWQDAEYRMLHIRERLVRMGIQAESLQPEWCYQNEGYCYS
Assay: Inhibition of Ostrinia furnacalis Hex1 expressed in Pichia pastoris at 100 uM using 4-MU-GlcNAc as substrate measured after 30 mins by fluorescence assay relative to control
# if value of inhibition reaches 30%, tag y; if it stays below, tag n

These solved cases illustrate the format of a correct answer.
substance.smiles | discrete.label
CC(=O)N[C@@H]1[C@@H](O)[C@H](O)[C@@H](CO)O[C@H]1SCCCn1cc(CN2C(=O)c3cccc4cccc(c34)C2=O)nn1 | y
CC(=O)N[C@@H]1[C@@H](O)[C@H](O)[C@@H](CO)O[C@H]1SCC(=O)NN1C(=O)c2cccc3cccc(c23)C1=O | n
CC(=O)N[C@@H]1[C@@H](O)[C@H](O)[C@@H](CO)O[C@H]1SCCC(=O)NCCCCN1C(=O)c2cccc3cccc(c23)C1=O | n
CC(=O)N[C@@H]1[C@@H](O)[C@H](O)[C@@H](CO)O[C@H]1SCCC(=O)NCCN1C(=O)c2cccc3cccc(c23)C1=O | n
NN1C(=O)c2cccc3cccc(c23)C1=O | n
CC(=O)N[C@@H]1[C@@H](O)[C@H](O)[C@@H](CO)O[C@H]1SCCCCCCn1cc(CN2C(=O)c3cccc4cccc(c34)C2=O)nn1 | y
CC(=O)N[C@@H]1[C@@H](O)[C@H](O)[C@@H](CO)O[C@H]1S | n
CC(=O)N[C@@H]1[C@@H](O)[C@H](O)[C@@H](CO)O[C@H]1SCCCCCn1cc(CN2C(=O)c3cccc4cccc(c34)C2=O)nn1 | y

## Input Does CC(=O)N[C@@H]1[C@@H](O)[C@H](O)[C@@H](CO)O[C@H]1SCn1cc(CN2C(=O)c3cccc4cccc(c34)C2=O)nn1 have a reported inhibition of at least 30%?
## Output n
